Values from patent US10377717B2

Give measured pEC50 for each item. Keep answers brief.
- Test system: hFXR (Homo sapiens (Human))
- Experimental details: In Vitro FXR Assay (TK), luciferase reporter in transfected CV-1 cells
- Conditions used: TK-ECRE-luc reporter, hFXR/hRXR, 18 hrs, maximum efficacy <25% of Fexaramine control classified as '+'
pEC50: −log10 of the molar value.

Record excerpt, results attached:
Exercise: // lookup pEC50 for COc1ccc(-c2ccc(CN(C(=O)C3CCCCC3)c3nccc4cc(C(=O)OC(C)C)ccc34)cc2)cc1C
Key: ≥ 6.00

Exercise: Try this molecule next: COC(=O)c1ccc2c(N(CC3CCN(c4ccc(OC)c(C)c4)CC3)C(=O)CC(C)(C)C)nccc2c1
Key: 5.00 to 6.00

Exercise: Try this molecule next: COC(=O)c1ccc2c(N(Cc3ccc(-c4ccc5c(c4)OCCO5)cc3)C(=O)CC(C)(C)C)nccc2c1
Key: ≥ 6.00

--- query ---
Exercise: # query: pEC50 of entry COC(=O)c1ccc2c(N(Cc3ccc(-c4ccc(OC)c(C)c4)cc3)C(=O)CCCCO)nccc2c1
Key: ≤ 5.00

* * *

- Test system: hFXR (Homo sapiens (Human))
- Experimental details: In Vitro FXR Assay (TK), luciferase reporter in transfected CV-1 cells
- Format: cell-based
- Conditions used: TK-ECRE-luc reporter, hFXR/hRXR, 18 hrs, maximum efficacy <25% of Fexaramine control classified as '+'
- Method: CV-1 cells were seeded at a density of 2,000,000 cells in a T175 flask with DMEM+10% charcoal double-stripped FBS and incubated at 37° C. in 5% CO2 for 18 h (O/N). After 18 h of incubation, the medium in the T175 flask was changed with fresh DMEM+10% charcoal super-stripped serum. […] Compounds were serially diluted in DMSO and added to transfected CV-1 cells. […] The next day cells were lysed and examined for luminescence.
pEC50: −log10 of the molar value.
Endpoint name: pEC50

Example results:
Exercise: Fill in: pEC50 of COC(=O)c1ccc2c(N(Cc3ccc(-c4ccc(OC)cc4)cc3)C(=O)CC(C)(C)C)nccc2c1 is ___
Key: ≥ 6.00

Exercise: Continue with COC(=O)c1ccc2c(N(Cc3ccc(-c4ccc(OC)c(C)c4)cc3)C(=O)C3CCCCC3)nccc2c1
Key: ≥ 6.00

Exercise: Note, next up: COC(=O)c1ccc2c(N(C[C@H]3CC[C@H](c4ccc(Cl)cc4)CC3)C(=O)CC(C)(C)C)nccc2c1
Key: 5.00 to 6.00

Exercise: What do we get for CCOC(=O)c1cnc2c(N(Cc3ccc(-c4ccc(N(C)C)cc4)cc3)C(=O)C3CCCCC3)cccc2c1 ?
Key: 5.00 to 6.00

Exercise: How about COC(=O)c1ccc2c(N(Cc3ccc(-c4ccc5sc(C)nc5c4)cc3)C(=O)CC(C)(C)C)nccc2c1 ?
Key: 5.00 to 6.00

Dear reader, for each entry below, please note its pEC50.
1. COC(=O)c1ccc2c(N(C[C@H]3CC[C@H](c4ccc(OC)cc4)CC3)C(=O)CC(C)(C)C)nccc2c1
2. COC(=O)c1ccc2c(N(Cc3ccc(-c4ccc5c(c4)CCO5)cc3)C(=O)CC(C)(C)C)nccc2c1

Key:
≥ 6.00
≥ 6.00

Kindly give each listed record's pEC50.
1. COC(=O)c1ccc2c(N(Cc3ccc(-c4ccc(OC)c(C)c4)cc3)C(=O)C3CCCC3)nccc2c1
2. CCOC(=O)c1ccc2c(N(Cc3ccc(-c4ccc(OC)c(C)c4)cc3)C(=O)C3CCCCC3)cccc2n1
3. COC(=O)c1ccc2c(N(Cc3ccc(-c4ccc(OC)c(C)c4)cc3)C(=O)CCC(C)(C)C)nccc2c1
4. COC(=O)c1ccc2c(N(Cc3ccc(-c4ccc(OC)c(C)c4)cc3)C(=O)CCCOCc3ccccc3)nccc2c1
5. CCc1ccc(-c2ccc(CN(C(=O)CC(C)(C)C)c3nccc4cc(C(=O)OC)ccc34)cc2)cc1
6. CCOC(=O)c1ccc2c(N(Cc3ccc(-c4ccc(OC)c(C)c4)cc3)C(=O)C3CCCCC3)nccc2c1
7. COC(=O)c1cc2cccc(N(Cc3ccc(-c4ccc(N(C)C)cc4)cc3)C(=O)C3CCCCC3)c2[nH]1
8. COC(=O)c1ccc2c(N(Cc3ccc(-c4ccc(OC)c(F)c4F)cc3)C(=O)CC(C)(C)C)nccc2c1

Key:
≥ 6.00
5.00 to 6.00
≥ 6.00
≤ 5.00
≥ 6.00
≥ 6.00
≤ 5.00
≥ 6.00

Respectfully, I request pEC50 for each entry included below.
1. COC(=O)c1ccc2c(N(C[C@H]3CC[C@H](c4ccccc4OC)CC3)C(=O)CC(C)(C)C)nccc2c1
2. COC(=O)/C=C/c1ccnc(N(Cc2ccc(-c3ccc(N(C)C)nc3)cc2)C(=O)[C@H]2CC[C@H](O)CC2)c1
3. COC(=O)c1ccc2c(N(Cc3ccc(-c4ccc(OC)c(C)c4)cc3)C(=O)CC3CCCC3)nccc2c1
4. COC(=O)c1ccc2c(N(C[C@H]3CC[C@H](c4ccc(OC)c(C)c4)CC3)C(=O)CC(C)(C)C)nccc2c1
5. COC(=O)c1cc(N(Cc2ccc(-c3ccc(N(C)C)cc3)cc2)C(=O)C2CCCCC2)c2ccccc2c1
6. COC(=O)c1ccc2c(N(Cc3ccc(-c4ccc(OC)c(C)c4)cc3)C(=O)C(C)C)nccc2c1

Key:
1: ≤ 5.00; 2: 5.00 to 6.00; 3: ≥ 6.00; 4: ≥ 6.00; 5: ≤ 5.00; 6: ≥ 6.00

Look at each compound and report its pEC50.
1. COc1ccc(-c2ccc(CN(C(=O)CC(C)(C)C)c3nccc4cc(C(=O)OC(C)C)ccc34)cc2)cc1C
2. COCCOc1ccc(-c2ccc(CN(C(=O)CC(C)(C)C)c3nccc4cc(C(=O)OC)ccc34)cc2)cc1
3. COC(=O)c1ccc2c(N(Cc3ccc(-c4ccc(OC)c(C)c4)cc3)C(=O)CC3CCC3)nccc2c1
4. COCCc1ccc(-c2ccc(CN(C(=O)CC(C)(C)C)c3nccc4cc(C(=O)OC)ccc34)cc2)cc1
5. CCOc1ccc(-c2ccc(CN(C(=O)CC(C)(C)C)c3nccc4cc(C(=O)OC)ccc34)cc2)cc1

Key:
1: ≥ 6.00; 2: 5.00 to 6.00; 3: ≥ 6.00; 4: ≥ 6.00; 5: 5.00 to 6.00

// input: 2 compounds below; output: pEC50 for each
1. COCc1ccc(-c2ccc(CN(C(=O)CC(C)(C)C)c3nccc4cc(C(=O)OC)ccc34)cc2)cc1
2. COC(=O)c1ccc2c(N(Cc3ccc(-c4ccc(C)c(Cl)c4)cc3)C(=O)CC(C)(C)C)nccc2c1

Key:
["≥ 6.00", "≥ 6.00"]

Exercise: Quick one: pEC50 of COC(=O)c1ccc2c(N(Cc3ccc(-c4ccc(Cl)c(C#N)c4)cc3)C(=O)CC(C)(C)C)nccc2c1 ?
Key: 5.00 to 6.00

* * *

Exercise: for every item that follows, state its recorded pEC50.
- Test system: hFXR (Homo sapiens (Human), UniProt Q96RI1)
- Sequence (Q96RI1 whole entry): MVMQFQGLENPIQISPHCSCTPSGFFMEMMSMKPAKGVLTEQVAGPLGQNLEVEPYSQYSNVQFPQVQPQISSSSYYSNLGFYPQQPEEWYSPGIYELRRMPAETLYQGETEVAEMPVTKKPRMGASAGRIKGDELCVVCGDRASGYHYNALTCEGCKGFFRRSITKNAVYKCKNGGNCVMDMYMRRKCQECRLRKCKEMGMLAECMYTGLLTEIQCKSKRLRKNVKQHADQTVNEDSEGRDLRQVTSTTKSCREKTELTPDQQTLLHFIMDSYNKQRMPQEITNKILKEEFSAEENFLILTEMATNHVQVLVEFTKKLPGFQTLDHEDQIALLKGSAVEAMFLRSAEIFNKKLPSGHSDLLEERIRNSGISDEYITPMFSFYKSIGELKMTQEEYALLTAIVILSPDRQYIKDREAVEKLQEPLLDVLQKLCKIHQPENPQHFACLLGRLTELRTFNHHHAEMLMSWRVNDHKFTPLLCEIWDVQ
- Sequence (P19793 whole entry partner): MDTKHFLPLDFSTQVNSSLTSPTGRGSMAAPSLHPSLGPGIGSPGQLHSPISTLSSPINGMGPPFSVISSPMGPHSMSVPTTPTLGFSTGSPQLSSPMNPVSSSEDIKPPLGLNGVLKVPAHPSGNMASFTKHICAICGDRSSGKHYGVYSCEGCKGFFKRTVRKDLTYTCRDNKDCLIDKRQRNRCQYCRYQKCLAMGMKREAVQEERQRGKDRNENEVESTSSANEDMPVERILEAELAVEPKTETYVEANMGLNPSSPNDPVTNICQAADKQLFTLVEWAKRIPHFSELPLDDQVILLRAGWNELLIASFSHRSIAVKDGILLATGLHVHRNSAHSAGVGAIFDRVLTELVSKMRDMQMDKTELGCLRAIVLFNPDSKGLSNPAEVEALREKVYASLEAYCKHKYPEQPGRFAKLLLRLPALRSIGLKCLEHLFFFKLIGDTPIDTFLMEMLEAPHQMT
- Experimental details: In Vitro FXR Assay (TK), luciferase reporter in transfected CV-1 cells
- Conditions used: TK-ECRE-luc reporter, hFXR/hRXR, 18 hrs, maximum efficacy <25% of Fexaramine control classified as '+'
pEC50: −log10 of the molar value.

Exercise: Reported pEC50 for COC(=O)c1ccc2c(N(C[C@H]3CC[C@H](c4ccc(OC)c(C)c4)CC3)C(=O)[C@H]3CC[C@H](O)CC3)nccc2c1 [Compound 99] : what is it?
Key: ≥ 6.00

Each molecule below has a recorded value; state its pEC50.
1. CCC(C)(C)CC(=O)N(C[C@H]1CC[C@H](c2ccc(OC)c(C)c2)CC1)c1nccc2cc(C(=O)OC(C)C)ccc12 [Compound 88]
2. COC(=O)c1ccc2c(N(Cc3ccc(-c4ccc(N(C)C)nc4)cc3)C(=O)CC(C)(C)C)nccc2c1 [Compound 38]
3. COC(=O)c1ccc2c(N(Cc3ccc(-c4cnc5c(ccn5C)c4)cc3)C(=O)CC(C)(C)C)nccc2c1 [Compound 49]
4. COC(=O)c1ccc2c(N(Cc3ccc(-c4ccc5c(c4)CCN5C(=O)OC(C)(C)C)cc3)C(=O)CC(C)(C)C)nccc2c1 [Compound 51]
5. COC(=O)/C=C/c1ccnc(N(Cc2ccc(-c3ccc(N(C)C)nc3)cc2)C(=O)C2CCCCC2)c1 [Compound 5]

Key:
1: ≥ 6.00; 2: ≥ 6.00; 3: ≥ 6.00; 4: ≤ 5.00; 5: 5.00 to 6.00

Exercise: # input molecule: COC(=O)c1ccc2c(N(Cc3ccc(-c4ccc(OC)c(C#N)c4)cc3)C(=O)CC(C)(C)C)nccc2c1 [Compound 24] ; wanted: its pEC50
Key: ≥ 6.00

* * *

Record form. Attribute: EC50. Fill in for each entry.
- Test system: UniProtKB Q96RI1
- Experimental details: In Vitro FXR Assay (TK), luciferase reporter in transfected CV-1 cells
- Conditions used: TK-ECRE-luc reporter, hFXR/hRXR, 18 hrs, maximum efficacy <25% of Fexaramine control classified as '+'

// known answers, use as guide
Exercise: Which EC50 is listed for CN(C)c1ccc(-c2ccc(CN(C(=O)C3CCCCC3)c3cccc4ccccc34)cc2)cc1 ?
Key: ≥ 10 µM

Exercise: What do you get for COC(=O)c1ccc2c(N(Cc3ccc(-c4ccc(N(C)C)cc4)cc3)C(=O)C(C)(C)C)nccc2c1 ?
Key: 1 to 10 µM

Exercise: Entry to check: COC(=O)c1cc2c(N(Cc3ccc(-c4ccc(N(C)C)cc4)cc3)C(=O)C3CCCCC3)cccc2[nH]1
Key: ≥ 10 µM

Lab note: next compound to report on.
Exercise: Consider the compound shown here: COC(=O)c1ccc2c(N(Cc3ccc(-c4ccc(OC)c(C#N)c4)cc3)C(=O)[C@H]3CC[C@H](O)CC3)nccc2c1 What is its recorded EC50?
Key: 1 to 10 µM
